- Target: NS3-NS4A protease (Hepatitis C virus genotype 1a)
- Construct: Recombinant E. coli or Baculovirus full-length NS3 was diluted to 3.33 μM with assay buffer; made in house; host or cells: E. coli or baculovirus (BV) system
- Sequence (P27958 1027-1657): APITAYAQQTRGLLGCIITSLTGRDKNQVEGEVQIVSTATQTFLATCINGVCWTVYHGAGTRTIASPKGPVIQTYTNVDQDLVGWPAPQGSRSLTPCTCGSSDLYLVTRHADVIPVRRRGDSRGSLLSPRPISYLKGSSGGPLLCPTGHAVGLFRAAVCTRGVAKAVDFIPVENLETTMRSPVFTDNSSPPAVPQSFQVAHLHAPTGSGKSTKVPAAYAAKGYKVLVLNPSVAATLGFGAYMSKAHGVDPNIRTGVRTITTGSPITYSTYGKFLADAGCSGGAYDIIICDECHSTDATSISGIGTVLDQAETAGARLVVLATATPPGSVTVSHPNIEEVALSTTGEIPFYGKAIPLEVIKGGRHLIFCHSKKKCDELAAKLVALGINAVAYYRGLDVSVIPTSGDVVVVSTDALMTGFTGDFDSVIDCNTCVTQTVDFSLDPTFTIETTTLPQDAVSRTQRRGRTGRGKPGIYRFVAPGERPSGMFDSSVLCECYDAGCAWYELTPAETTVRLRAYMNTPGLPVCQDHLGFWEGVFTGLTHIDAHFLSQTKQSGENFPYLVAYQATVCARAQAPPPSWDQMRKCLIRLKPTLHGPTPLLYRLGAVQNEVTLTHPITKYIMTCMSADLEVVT
- Assay: NS3-NS4A protease assay (NS3 inhibition assay, RETS1 substrate), Section B
- Assay type: biochemical
- Experimental Parameters: read-out: NS3-NS4A IC50
Readout Label: IC50

In the examples that follow, each entry is paired with its recorded IC50.
# Compound, Target, Test Value
data = [
    ("CC(C)(C)OC(=O)N[C@H]1CCCCC/C=C\\[C@@H]2C[C@@]2(C(=O)NS(C)(=O)=O)NC(=O)[C@@H]2C[C@@H](OC(=O)N3Cc4ccccc4C3)CN2C1=O [AR00333803]", "NS3-NS4A protease (Hepatitis C virus genotype 1a)", "< 100 nM"),
    ("CC(C)(C)OC(=O)N[C@H]1CCCCC/C=C\\[C@@H]2C[C@@]2(C(=O)NS(=O)(=O)C2CC2)NC(=O)[C@@H]2C[C@@H](OC(=O)N3Cc4cc(Cl)c(Cl)cc4C3)CN2C1=O [AR00320121]", "NS3-NS4A protease (Hepatitis C virus genotype 1a)", "< 100 nM"),
    ("COc1ccc2c(c1)CCN(C(=O)O[C@@H]1C[C@H]3C(=O)N[C@]4(C(=O)O)C[C@H]4/C=C\\CCCCC[C@H](NC(=O)OC(C)(C)C)C(=O)N3C1)C2CN(C)C (some centres unmarked) [AR00333277]", "NS3-NS4A protease (Hepatitis C virus genotype 1a)", "< 10000 nM"),
    ("CC(C)(C)OC(=O)N[C@H]1CCCCC/C=C\\[C@@H]2C[C@@]2(C(=O)NS(=O)(=O)C2CC2)NC(=O)[C@@H]2C[C@@H](NC(=S)N3CCc4ccccc4C3)CN2C1=O [AR00304012]", "NS3-NS4A protease (Hepatitis C virus genotype 1a)", "< 100 nM"),
]

Okay, next one:
Please report IC50 for the following compound: CC(C)(C)OC(=O)N[C@H]1CCCCC/C=C\[C@@H]2C[C@@]2(C(=O)NS(=O)(=O)C2CC2)NC(=O)[C@@H]2C[C@@H](OC(=O)N3CCc4cc(C(F)(F)F)ccc4C3)CN2C1=O [AR00301747]
< 100 nM
